# MEASUREMENT PROTOCOL: chemical genetic growth profiling, strain panel (AID 1159580);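 note: tested at 20 µM; growth read once vehicle control cultures reached saturation at 30 °C; 1 = growth at the plate median or of vehicle wells; lower values mean less growth of the strain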
# CONDITIONS: S. cerevisiae deletion strains, growth OD, locus YDR388W, active compounds read low
The campaign covered roughly 5,500 compounds. About 2,000 (36%) were called active. About 18% were inconclusive and are not listed. The list shows a part of the results.
MEASURE NAME: normalized growth
The response must contain the number and no unit.

CCCC(C)C1(CC)C(=O)N=C(S)NC1=O (configuration not stated)	0.0597

Please report the measured normalized growth for `C1CNCCN1` 0.996

Please report the measured normalized growth for `CC(C)(C)NC[C@@H](O)COc1nsnc1N1CCOCC1` 0.99

Please report the measured normalized growth for CCCC(C)C1(CC)C(=O)NC(=O)NC1=O (configuration not stated) 1.01

Please report the measured normalized growth for C=CCC1(C(C)CCC)C(=O)N=C(S)NC1=O (configuration not stated) 0.986

Please report the measured normalized growth for CCCCC(CC)CN1CN(CC(CC)CCCC)CC(C)(N)C1 (configuration not stated) 0.15

Please report the measured normalized growth for `Nc1ccc(S(=O)(=O)Nc2ccc(Cl)nn2)cc1` 1.01
